measurement_target: canine CD3 on canine T cells (canine PBMC) (canine, UniProt P27597 22-202)
Sequence (P27597 22-202 limits assumed, chain 1 of 3): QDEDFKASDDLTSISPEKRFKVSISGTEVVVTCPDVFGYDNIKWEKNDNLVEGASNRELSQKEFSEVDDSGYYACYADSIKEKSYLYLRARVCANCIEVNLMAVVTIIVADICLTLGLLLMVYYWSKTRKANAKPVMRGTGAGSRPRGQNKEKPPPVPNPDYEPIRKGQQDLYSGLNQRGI
Sequence (chain, as listed by the source limits assumed, chain 2 of 3): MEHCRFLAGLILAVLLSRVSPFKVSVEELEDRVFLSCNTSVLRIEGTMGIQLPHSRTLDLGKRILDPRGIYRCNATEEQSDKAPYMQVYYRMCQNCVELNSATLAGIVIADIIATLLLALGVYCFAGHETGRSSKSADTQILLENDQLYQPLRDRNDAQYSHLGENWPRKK
Sequence (chain, as listed by the source limits assumed, chain 3 of 3): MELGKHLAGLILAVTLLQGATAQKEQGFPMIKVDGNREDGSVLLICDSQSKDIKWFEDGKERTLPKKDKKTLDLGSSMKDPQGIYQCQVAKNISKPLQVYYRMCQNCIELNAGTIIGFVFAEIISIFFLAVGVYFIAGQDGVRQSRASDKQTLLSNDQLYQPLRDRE
protocol_text: cell-based or functional assay
# Lookup of reported CD25 Activation, Day 6, IS keyed by entry
Enter the number alone.

Known CD25 Activation, Day 6, IS results, listed for orientation:
# binder, experimental_result
measured = [
    ("PMX197 (monospecific anti-canine CD3, canine IgG-B effector function deficient Fc) (antibody, V domains shown) VH: ELTLQESGPGLVKPSQTLSLTCLVSGGSVTRSYYWNWIRQRPGRGLEWMGYWTGSTNYNPAFQGRISIIPDTAKNQFSLQLTSMTTDDTAIYFCAREGGRTLGAFADWGQGTLVTVSS VL: SYVLTQLPSKNVTLKQPAHITCGGDKIGSKNVHWYQQKLGQAPVLIIYYDSSRPTGIPERFSGANSGNTATLTISGALAEDEADYYCQVWDSSAKASVFGGGTHLTVL", 10.5),
    ("PMX194 (monospecific anti-canine CD3, canine IgG-B effector function deficient Fc) (antibody, V domains shown) VH: EVQLVESGGDLVKPGGSLRLSCVASGFTFSNYHMSWVRQAPGKGLQWVAYSNSGRMSTDYADAVKGRFTISRDNAKNTLYLQMNSLRPEDTAVYYCATVIYGLFDYWGQGTLVTVSS VL: DIVMTQTPLSLSVSPGEPASISCKASQSLLYSNGNTYLYWFRQKPGQSPQRLIYKVSKRDSGVPDRFSGSGSGTDFTLRIRRVEADDAGVYYCGQGTQDPYTFSQGTKLEIK", 13),
]

Return reported CD25 Activation, Day 6, IS. Input binder: PMX184 (monospecific anti-canine CD3, canine IgG-B effector function deficient Fc) (antibody, V domains shown) VH: ELTLQESGPGLVKPSQTLSLTCGVSGGSVTRSHYWNWVRQRPGRGLEWMGYWTGSTNYNPAFQGRISITADTAKNQFSLQLRSMTTEDTAVYFCARETTIPTFFFDYWGQGTLVTVSS VL: SYVLTQLPSKNVTLKQPAHITCGGDNIGSKSVHWYQQKLGQAPVLIIYYDSSRPTGIPERFSGANSGNTATLTISGALAEDEADYYCQVWDSGAKAWVFGEGTQLTVL
10.4

src = patent US20240209086A1
